Experiment: yeast display, Sf9 membrane polyspecificity reagent, FACS + sequencing; frameworks hold sequencing errors
property-name: polyreactivity (PSR sort gate)

{"columns": ["query-sequence", "property-name", "reading"],
 "data": [
  ["QFQLVESGGGLVQAGGRLRLSCAASGYTFYSYAMGWSRQAPGKERELVASITRRVGGTYYADSVKGRFTISRDNAKKTVYLQMNSLKPEDTAVYYCAAGYYHKKSSTDIEKYWGQGTQLTVSS", "polyreactivity (PSR sort gate)", "low polyreactivity"],
  ["QVQLVESGGGLVQAGGSLRLSCAASGRTFEDNAMGWYRQAPGKERELVAAISSDGSTNYADSVKGRFTISRDNAKNTVYLQMNSLKPEDTAVYYCNATVYWPYDWRTSDYWGQGTQVTVSS", "polyreactivity (PSR sort gate)", "low polyreactivity"],
  ["QVQLVESGGGLVQAGGSLSLSCAASGRIFSNYAMGWYRQAPGKERELVADISSRGVSTYYADSVKGRFTISRDNAKNPGYLQMKSLKPEDTAVYYCAARGYQRQYYYWGQGTQVTVSS", "polyreactivity (PSR sort gate)", "high polyreactivity"],
  ["QVQLVESGGGLVQAGGSLRLICAASGFIFDPYAMGSYRQATGKVRELVAAISSGGSTYYADSVKGRFTISRDNAKNTVYLQMNSLKPEDNAVYYCAKVYVRYDSSTQTYLNTYGYWGQGTQVTVSS", "polyreactivity (PSR sort gate)", "high polyreactivity"],
  ["QVQLVESGGGLVQAGGSLRLSCAASGSIFRVNAMGWYRQAPGKERELVAAISRRGGRRYYADSVKGRFTISRDNAKNTVYLQMNSLKPEDTAVYYCAAGVSVSASPYNGFDYWGQGTQVTVSS", "polyreactivity (PSR sort gate)", "high polyreactivity"],
  ["QVQLVESGGGLVQAGGSLRLSCAASGRIFQYYAMGWYRQAPGKERELVAAISRGGSTNYADSVKGRFTISRDNAKNTVYLQMNSLKPEDTAVYFCAADEYRYYFYRAGIGFDYWGQGTQVTVSS", "polyreactivity (PSR sort gate)", "low polyreactivity"],
  ["QVQLVESGGGLVQAGGSLRLSCAASGRTFYSNAMGWYRQAPGKERELVAAITSTDDSTYYADSVKGRFTISRDNAKNTVYLQMNSLKPEDNAVYYCNRDGLIAIRGLWWVEYDYWGQGTQVTVSS", "polyreactivity (PSR sort gate)", "low polyreactivity"],
  ["QVQLVESGGGLVQAGGSLRLSCAASGITFYKYVMGWYRQAPGKEREFVAAITWSGDSTYADSVKGRFTISRDNAKNTVYLQMNSLKPEDTAVYYCAARTWSRRQREYDYWGQGTQVTVSS", "polyreactivity (PSR sort gate)", "high polyreactivity"],
  ["QVQLVESGGGLVQAGGSLRLSCAASGSIFYGYAMGWYRQAPGKERELVASISKRGGSTYYADSVKGRFTISRDNAKNTVYLQMNSLKPEDTAVYYCAAEGVVYREYNYWGQGTQVTVSS", "polyreactivity (PSR sort gate)", "high polyreactivity"],
  ["QVQLVESGGGLVQAGGSLRLSCAASGRTYYWYAMGWYRQAPGKERELVAAISSGGSTYYADSVKGRFTISRDNAKNTVSLQMISLKPEDTAVYYCAAYPQAYIADYDYWGQGTQVTVSS", "polyreactivity (PSR sort gate)", "low polyreactivity"],
  ["QVQLVESGGGLFQAGGSLRLICAASGRTFVVYAMGSYRQAPGKEWELVAAISWSGGRTYYADSVKGRFTMSRDNAKNTVYLQMNTLKPEDTAVYYCPAEVYLYKYVYYYWGQGTQVTVSS", "polyreactivity (PSR sort gate)", "high polyreactivity"],
  ["QVKLVESGGGLVQAGGSLLLSCDASGIIFKYYAMGWYRQAPGKERELVARITARGGRTYYADSVKGRFTISRDNAKNTVYLQMNSLKPEDTAFYYCAKKLRGWHTIITDYDYWGQGTQLTVSS", "polyreactivity (PSR sort gate)", "low polyreactivity"],
  ["QVQLVESGGGLVQAGGSLRLSCAASGSIFRKNAMGWYREAPGKERELVATISGGGSTTYADSVKGRFTISRDNAKNTLYLQMNSLKPEDTAVYYCAARSTWFQIRYGYWGQGNQVTVSS", "polyreactivity (PSR sort gate)", "high polyreactivity"],
  ["QVQLVESGGGLVQAGGSLRLSCAASGRIFAGYAMGWYRQAPGKERELVASIRSSGSTYYADSVKGRFTISRDNAKNTVYLQMNSLKPEDTAVYYCNKYVPYRHLWDYGYWGQGTQVTVSS", "polyreactivity (PSR sort gate)", "high polyreactivity"],
  ["QVQLVESGGGLVQAGGSLRLSCAASGSTFVSNAMGWYRQAPGKERELVAGISWSGGSTYYADSVKGRFTISRDNAKNTVYLQMHSLKPEDTAVYYCNAVYRPRQFDYWGQGTQVTVSS", "polyreactivity (PSR sort gate)", "low polyreactivity"],
  ["QVQLVESGGGLVQAGGSLRLSCAASGSIFAQNAMGWYRQAPGKERELVAAITSGGSTYYADSVKGRFTISRDNAKNTVYLQMNSLKPEDTAVYYCAARGWGPFYQYYYLGQGTQVTVSS", "polyreactivity (PSR sort gate)", "high polyreactivity"],
  ["QVQLVESGGGLVQAGGSLRLSCAASGNTFEYYVMGWYRQAPGKERELVAAITWSTGSTYYADSVKGRFTISRDNAKNTVYLQMNSLKPEDTAVYYCAALYYFIFGRPTRFDYWGLGTQVTVSS", "polyreactivity (PSR sort gate)", "low polyreactivity"],
  ["QVQLVESGGGLVQAGGSLRLSCAASGFTFGNYAMGWYRQAPGKERELVAVISRSGGNTYYADSVKGRFTISRDNAKNTVYLQMNSLKPEDTAVYYCAATLVGKVFRRFDYWGQGTQVTVSS", "polyreactivity (PSR sort gate)", "high polyreactivity"],
  ["QVQLVESVGGLVQAGGSLSLSCAASGRIFVWYTMGWYRQAPGKEREFVASINGGGNTNYADSVKGRFTISRDNAKNTVYLQMNSLKPEDTADYYCAREYFGEMDYWGHGTQVTVSS", "polyreactivity (PSR sort gate)", "low polyreactivity"],
  ["QVQLVESGGGLVQAGGSLRLSSAASGLIFYWYAMGWYRQAPGKERELVAAISSAGSTNYADSVKGRFTISRDNAKNTVYLQMNSLKPEDTAVYYCAKGGYSPKSVKYYDYWGQGTQVTVSS", "polyreactivity (PSR sort gate)", "low polyreactivity"],
  ["QVQLVESGGGLVQAGGSLRLSCAAYGSTITYYPMGWYRQAPGKERELVAAISGSGRTHYADSVKGRFTISRDNAKNTVYLQMISLNPEDTAVYYCNARQYTYNYAFTRCKYDYWGQGTQVTVSS", "polyreactivity (PSR sort gate)", "high polyreactivity"]
]}
